Protocol Text: Metabolic stability in rat liver microsomes
Format: in vitro ADME
Measured Quantity: CLint (intrinsic body clearance)

A selection of reference data follows.
Molecule	Measured Quantity	Value Measured
Cc1ccc2c(c1)nc(/C=C/c1cccc3cccnc13)n2-c1cccc(S(=O)(=O)N2CCN(C)CC2)c1	CLint (intrinsic body clearance)	1390 mL/(min·g·protein)
Cc1ccc2c(c1)nc(/C=C/c1cccc3cccnc13)n2-c1cccc(CN2CCN(C)CC2)c1	CLint (intrinsic body clearance)	198.1 mL/(min·g·protein)
COc1cccc(-n2c(/C=C/c3cccc4cccnc34)nc3cc(C)ccc32)c1	CLint (intrinsic body clearance)	999.4 mL/(min·g·protein)
Cc1ccc2c(c1)nc(/C=C/c1cccc3cccnc13)n2-c1cccc(OCCCN2CCOCC2)c1.Cl [13·3HCl]	CLint (intrinsic body clearance)	127.7 mL/(min·g·protein)

Now look at this one.
Challenge: // CLint (intrinsic body clearance) lookup, key: Cc1ccc2c(c1)nc(/C=C/c1cccc3cccnc13)n2-c1cccc(OCCCN2CCN(C)CC2)c1.Cl [Compound 14·3HCl]
Response given: 85.1 mL/(min·g·protein)
